src = paper PMC11912270

targetOrSystem: late-stage gametocytes (NF54-PfS16-GFP-Luc)
protocolNotes: Luciferase reporter assay, late-stage gametocytes
Format: cell-based, Plasmodium falciparum
experimentalSetup: late (IV/V) gametocytes, luciferase, 48 h; read-out: LG IC50
pIC50: −log10 of the molar value.
quantityMeasured: pIC50

Use the examples below as a reference point.
> print(dat)
                                   molecule  quantitymeasured  reportedvalue
1  OCCN(CCO)C1=NC(c2ccccc2)=[O+][Pt-2]2([S]1)[n+]1ccccc1-c1cccc[n+]12.[Cl-] [C3]             pIC50         < 4.70
2  Cc1cc[n+]2c(c1)-c1cc(C)cc[n+]1[Pt-2]21[O+]=C(c2ccccc2)N=C(N(CCO)CCO)[S]1.[Cl-] [C2]             pIC50         < 4.70
3  COC(=O)c1cc[n+]2c(c1)-c1cc(C(=O)OC)cc[n+]1[Pt-2]21[O+]=C(c2ccccc2)N=C(N(CCO)CCO)[S]1.[Cl-] [C10]             pIC50         < 4.70
4  Cc1cccc(-c2cccc(C)n2)n1.OCCN(CCO)C(=S)N=C([O][Pt+])c1ccccc1.[Cl-] [C15]             pIC50           5.85
5  COc1cc[n+]2c(c1)-c1cc(OC)cc[n+]1[Pt-2]21[O+]=C(c2ccccc2)N=C(N(CCO)CCO)[S]1.[Cl-] [C4]             pIC50         < 4.70

Next, consider the following molecule.
According to the records, this molecule OCCN(CCO)C1=NC(c2ccccc2)=[O+][Pt-2]2([S]1)[n+]1ccc(Cl)cc1-c1cc(Cl)cc[n+]12.[Cl-] [C7] displays pIC50 of < 4.70

====

protocolNotes: Single-point microsomal metabolic stability, human
Assay type: in vitro ADME
experimentalSetup: human liver microsomes, 1 µM
Description: 1.8. Microsomal metabolic stability studies […] rat IGS, Xenotech), and mouse (male mouse CD1, Xenotech) liver microsomes (0.4 mg/ml) for 30 min at 37 °C. Reactions were quenched by adding ice-cold acetonitrile containing […] disappearance of the parent compound. Half-life, clearance, and hepatic excretion ratios were determined using standard equations.6,7 Propranolol. […]
quantityMeasured: Microsomal metabolic stability (% remaining after 30 min) Human (% remaining)
Give a bare numeral; the unit % remaining is implied.

According to the records, this molecule `Nc1cc[n+]2c(c1)-c1cc(N)cc[n+]1[Pt-2]21[O+]=C(c2ccccc2)N=C(N(CCO)CCO)[S]1.[Cl-]` displays Microsomal metabolic stability (% remaining after 30 min) Human of 43

According to the records, this molecule `OCCN(CCO)C1=NC(c2ccccc2)=[O+][Pt-2]2([S]1)[n+]1ccc(C(F)(F)F)cc1-c1cc(C(F)(F)F)cc[n+]12.[Cl-]` displays Microsomal metabolic stability (% remaining after 30 min) Human of 47

According to the records, this molecule `COc1cc[n+]2c(c1)-c1cc(OC)cc[n+]1[Pt-2]21[O+]=C(c2ccccc2)N=C(N(CCO)CCO)[S]1.[Cl-]` displays Microsomal metabolic stability (% remaining after 30 min) Human of 63

According to the records, this molecule `OCCN(CCO)C1=NC(c2ccccc2)=[O+][Pt-2]2([S]1)[n+]1ccccc1-c1cccc[n+]12.[Cl-]` displays Microsomal metabolic stability (% remaining after 30 min) Human of 72

According to the records, this molecule `Cc1cc[n+]2c(c1)-c1cc(C)cc[n+]1[Pt-2]21[O+]=C(c2ccccc2)N=C(N(CCO)CCO)[S]1.[Cl-]` displays Microsomal metabolic stability (% remaining after 30 min) Human of 70

====

System: late-stage gametocytes (NF54-PfS16-GFP-Luc)
protocolNotes: Luciferase reporter assay, late-stage gametocytes
Type: cell-based, Plasmodium falciparum
experimentalSetup: 1 µM, single biological repeat
Description: All the complexes were tested for their early- and late-stage gametocyte activity in a dual-point assay (1 μM and 5 μM). […] 1.5.In vitro activity against gametocyte stages PfNF54 gametocytes were prepared and isolated according to the method reported by Reader […] The in vitro gametocyte activity of the synthesized complexes was determined using a luciferase reporter line-based assay. NF54-PfS16-GFP-Luc parasites were used for the stage-specific assessment of gametocytocidal activity. […]
# LG (% inhibition) 1 µM >= 40 % inhibition gives satisfied, anything below gives not satisfied

Check out these entries, answers already filled in.
> print(dat)
                                  cpdsmiles  classassignment
1  CNC(=O)c1cc[n+]2c(c1)-c1cc(C(=O)NC)cc[n+]1[Pt-2]21[O+]=C(c2ccccc2)N=C(N(CCO)CCO)[S]1.[Cl-]    not satisfied
2  Cc1cccc(-c2cccc(C)n2)n1.OCCN(CCO)C(=S)N=C([O][Pt+])c1ccccc1.[Cl-]        satisfied
3  OCCN(CCO)C1=NC(c2ccccc2)=[O+][Pt-2]2([S]1)[n+]1ccc(C(F)(F)F)cc1-c1cc(C(F)(F)F)cc[n+]12.[Cl-]        satisfied
4  COc1cc[n+]2c(c1)-c1cc(OC)cc[n+]1[Pt-2]21[O+]=C(c2ccccc2)N=C(N(CCO)CCO)[S]1.[Cl-]    not satisfied
5  Nc1cc[n+]2c(c1)-c1cc(N)cc[n+]1[Pt-2]21[O+]=C(c2ccccc2)N=C(N(CCO)CCO)[S]1.[Cl-]        satisfied

Exam item: Check this molecule for LG (% inhibition) 1 µM at or above 40 % inhibition: `OCCN(CCO)C1=NC(c2ccccc2)=[O+][Pt-2]2([S]1)[n+]1ccc(Cl)cc1-c1cc(Cl)cc[n+]12.[Cl-]`
Marked response: not satisfied

====

protocolNotes: Single-point microsomal metabolic stability, mouse
Assay type: in vitro ADME
experimentalSetup: male, CD1, mouse liver microsomes, 30 min, read-out: Microsomal metabolic stability (% remaining after 30 min) Mouse
quantityMeasured: remaining at 0.5 h, 1 µM

According to the records, this compound CS(=O)(=O)c1ccc(-c2cnc(N)c(-c3ccc(C(F)(F)F)nc3)c2)cc1 [MMV390048, reference compound] displays remaining at 0.5 h, 1 µM of > 95%

====

System: PfNF54 ABS parasites
protocolNotes: SYBR Green I-based proliferative assay, PfNF54 ABS parasites
Format: cell-based, Plasmodium falciparum
experimentalSetup: ABS, SYBR Green I, 96 h; mean ± S.E., N = 3 (no S.E.: N = 1)
Protocol: The parasites were incubated under drug […] incubation, parasite survival was determined by adding equal volumes of parasite suspension (100 µL) and SYBR Green I lysis buffer (0.2% µL/mL of 10 000x SYBR Green I, 20 mM Tris-HCl, pH 7.5, 5 mM EDTA, 0.008% saponin (w/v) and 0.08% Triton x-100). This was incubated for 1 hour at room temperature in the dark. […]
Here the recorded IC50 is given for each entry.
Give a bare numeral; the unit nM is implied.

Use the examples below as a reference point.
> print(dat)
                                   molecule  reportedvalue
1  Nc1cc[n+]2c(c1)-c1cc(N)cc[n+]1[Pt-2]21[O+]=C(c2ccccc2)N=C(N(CCO)CCO)[S]1.[Cl-] [C6]           36.3
2  Cc1ccc(-c2ccc(C)cn2)nc1.OCCN(CCO)C(=S)N=C([O][Pt+])c1ccccc1.[Cl-] [C14]            241
3  OCCN(CCO)C1=NC(c2ccccc2)=[O+][Pt-2]2([S]1)[n+]1ccccc1-c1cccc[n+]12.[Cl-] [C3]            142

Next, consider the following molecule.
According to the records, this molecule Cc1cc[n+]2c(c1)-c1cc(C)cc[n+]1[Pt-2]21[O+]=C(c2ccccc2)N=C(N(CCO)CCO)[S]1.[Cl-] [C2] displays IC50 of 1420

====

Test system: ABS parasites
protocolNotes: Dual point activity against ABS parasites
Assay type: cell-based, Plasmodium falciparum
experimentalSetup: 5 µM, single biological repeat
Here the recorded ABS (% inhibition) 5 µM is given for each entry.
Record the result as number plus unit.

Use the examples below as a reference point.
> print(dat)
                                   compound  targetorsystem         quantitymeasured       reportedvalue
1  Cc1cc[n+]2c(c1)-c1cc(C)cc[n+]1[Pt-2]21[O+]=C(c2ccccc2)N=C(N(CCO)CCO)[S]1.[Cl-] [C2]   ABS parasites  ABS (% inhibition) 5 µM  104.0 % inhibition
2  CNC(=O)c1cc[n+]2c(c1)-c1cc(C(=O)NC)cc[n+]1[Pt-2]21[O+]=C(c2ccccc2)N=C(N(CCO)CCO)[S]1.[Cl-] [C9]   ABS parasites  ABS (% inhibition) 5 µM   24.5 % inhibition

Next, consider the following compound.
According to the records, this compound OCCN(CCO)C1=NC(c2ccccc2)=[O+][Pt-2]2([S]1)[n+]1ccc(O)cc1-c1cc(O)cc[n+]12.[Cl-] [C5] displays ABS (% inhibition) 5 µM of 11.0 % inhibition
